IC50 overview
Tested on: P. falciparum 3D7
ASSAY_METHOD_TEXT: In vitro inhibition of P. falciparum 3D7 (SYBR Green I-based fluorescence assay)
Format: cell-based, Plasmodium falciparum
REPORTED_CONDITIONS: Plasmodium falciparum; Table S2; P. falciparum 3D7; value used for SAR analysis; read-out: IC50
The reply should be a number in µM, with the unit left off.

- CC(=O)Oc1ccccc1-c1cnc(-c2cccc(OC(C)=O)c2OC(C)=O)o1: 9.22
- CC(=O)Oc1ccc(OC(C)=O)c(-c2cnc(-c3cc(OC(C)=O)ccc3OC(C)=O)o2)c1: 10.2
- Oc1ccccc1-c1nnc(-c2cccc(O)c2O)o1: 9.53

Record for COc1cccc(-c2ncc(-c3ccccc3O)o2)c1OC under target or system P. falciparum 3D7: IC50 reported as 8.37

The reported numbers originate from paper PMC11067372.
